Test system: Saccharomyces cerevisiae
Assay: protein stability index of tFT-peptide fusion (C-terminal peptide) (PSI (0-1 scale)); higher = more stable (slower turnover)
Conditions: genetic background: das1 deletion; temperature: 30 C
Readout kind: protein stability index
Just the number.

Please review the following examples before continuing.
LLSLLLDPLLCL : 0.522
RIWRLLIIIIKK : 0.236
KIIKERIRRIKI : 0.591
RRRRGGQSPALR : 0.71
LLVRSFIFPLVY : 0.294

Look up protein stability index for this sequence: CRWHLRIVRGLM
0.593

Look up protein stability index for this sequence: TYYPLNRSRFIG
0.635

Reported protein stability index for SLPVSPLVRLLA : what is it?
0.486

Consider the sequence shown here: CLRVSFFFWLFA What is its recorded protein stability index?
0.392

For the sequence shown here, VTTTWTWTVRLC , give the reported protein stability index.
0.54

Sample ACEFRFFYVFRC — what was its protein stability index?
0.31

----------
Test system: Saccharomyces cerevisiae
Assay: protein stability index of tFT-peptide fusion (C-terminal peptide) (PSI (0-1 scale)); higher = more stable (slower turnover)
Details: genetic background: wild type; temperature: 30 C
Readout kind: protein stability index

PLHPPATPAATT : 0.69
ECPLPPCPPLST : 0.68
LPSRWVPLPTPA : 0.508
VCWVRGGGVLDG : 0.711
RLRPPPRTLPTP : 0.722
LSVPWSTRPFSV : 0.703

From here, focus on the item given below.
Checklist item: protein stability index tested on Saccharomyces cerevisiae, entry RFWFWWVVRDGS , value?
0.617

----------
Attribute: protein stability index
System: Saccharomyces cerevisiae
Experiment: protein stability index of tFT-peptide fusion (C-terminal peptide) (PSI (0-1 scale)); higher = more stable (slower turnover)
Details: genetic background: wild type; temperature: 30 C
Reply briefly: the number, and no unit.

Guide cases for protein stability index, answers given:
WKKFLKFSKGSD [HXT17 C-terminal 12 aa] : 0.703
IAEGKSVGIIGA [HXK2 C-terminal 12 aa] : 0.682
ESAKQRRDKQKN [ATG38 C-terminal 12 aa] : 0.686

Find protein stability index (Saccharomyces cerevisiae) for the entry MVSSLRNANHIF [BCS1 C-terminal 12 aa]
0.681

Lab request: please report protein stability index under test system Saccharomyces cerevisiae for TWFKYFKWLDMF [MRX3 C-terminal 12 aa]
0.217

Identify the measured protein stability index of TNGNKSCLYWRV [FMP25 C-terminal 12 aa] for Saccharomyces cerevisiae.
0.66

----------
System: Saccharomyces cerevisiae
Assay: protein stability index of tFT-peptide fusion (C-terminal peptide) (PSI (0-1 scale)); higher = more stable (slower turnover)
Conditions: genetic background: das1 deletion; temperature: 30 C
Measured protein stability index by item
API note: the answer field is a bare number with no unit suffix.

Below, 3 sequences whose answers are already recorded.
CVVGTLGSDLKS [YPR150W C-terminal 12 aa] : 0.709
VTSIMDMPISRE [MVP1 C-terminal 12 aa] : 0.685
QYKNKLAKNVVL [ARB1 C-terminal 12 aa] : 0.675

Moving on to the next sequence.
Which protein stability index value is on record for ATSILLWYSNYS [CNM1 C-terminal 12 aa] ?
0.739

----------
Tested on: Saccharomyces cerevisiae
Assay: protein stability index of tFT-peptide fusion (C-terminal peptide) (PSI (0-1 scale)); higher = more stable (slower turnover)
Details: genetic background: wild type; temperature: 30 C
Could you label it rule met if measured protein stability index is 0.7 or higher, and rule not met otherwise?

See these solved cases before continuing.
YRKKIKNIWLRW : rule not met
FVVVGVLFLCVG : rule not met
GRVRETRCISYG : rule not met
FRASLFFVWLPS : rule not met
GGRVARRGAERG : rule not met
LYGASRCLVARS : rule not met
REHLSERVPSRA : rule met
SLALSAGFSIYL : rule not met
QPRVSTSGHSAR : rule met
NFMTEGYFWRGE : rule met

Determine whether measured protein stability index meets or exceeds 0.7 for GLGGNVLRVIFA
rule not met

Has CARPVLSAGSWQ a recorded protein stability index greater than or equal to 0.7?
rule not met

Check this sequence for protein stability index at or above 0.7: QSPRRQLEGKLE
rule not met

src = the supplement of paper PMC10724198
